assay: Toxicity liver stage against HepG2, at 10uM; assay type: cell-based; design: test concentration 10 uM, cell line HepG2-A16-CD81EGFP; conditions: human, HepG2-A16-CD81EGFP cells; read-out: INHIBITION

>  <molecule>
O=C1C(N2CCN(c3ccc(O)cc3)CC2)CCN1C1CCOCC1 (stereo not given)

>  <cytotoxicity at 10 µM / %>
12.6

$$$$
>  <molecule>
Cc1cc(C)n(C2CN(CC(=O)N3CCOCC3)C2)n1

>  <cytotoxicity at 10 µM / %>
-3.2

$$$$
>  <molecule>
CC(=O)N1CCCC2(C1)CN(c1ncc(C)cn1)CCO2 (stereo not given)

>  <cytotoxicity at 10 µM / %>
14

$$$$
>  <molecule>
COc1ccc2c(c1)[nH]c1c(N(C)CC3OCCO3)ncnc12

>  <cytotoxicity at 10 µM / %>
18.2

$$$$
>  <molecule>
CC(c1cccnc1)N1CCN(CCCC#N)CC1 (stereo not given)

>  <cytotoxicity at 10 µM / %>
10.3

$$$$
>  <molecule>
Cc1ccc(N2CCO[C@H]3CN(Cc4nccs4)C[C@H]32)nn1

>  <cytotoxicity at 10 µM / %>
-94.7

$$$$
>  <molecule>
COCc1noc(-c2ccc(N(C)Cc3cc(C)no3)nc2)n1

>  <cytotoxicity at 10 µM / %>
-17.2

$$$$
>  <molecule>
COC(=O)N1CCN(Cc2ccccc2C(C)(C)C#N)CC1

>  <cytotoxicity at 10 µM / %>
-3.53

$$$$
>  <molecule>
CC1(c2ccccc2)CCC(=O)N(CCCN2CCOCC2)C1 (stereo not given)

>  <cytotoxicity at 10 µM / %>
-18.1

$$$$
>  <molecule>
CNC(=O)c1cccc(CN2CCC(N(C)Cc3noc(C)n3)C2)c1 (stereo not given)

>  <cytotoxicity at 10 µM / %>
4.37

$$$$
>  <molecule>
CCN1C[C@H]2C3(CCN(C(=O)NC(C)C)CC3)CC[C@@]2(C(=O)N(C)C)C1

>  <cytotoxicity at 10 µM / %>
-109

$$$$
>  <molecule>
Cc1cc(-c2cncnc2)nc(C2CCCN2S(C)(=O)=O)n1 (stereo not given)

>  <cytotoxicity at 10 µM / %>
-6.21

$$$$
>  <molecule>
CN(C)Cc1nn(C)c2c1CN(C(=O)c1cccc(C#N)c1)C2

>  <cytotoxicity at 10 µM / %>
7.38

$$$$
>  <molecule>
O=C1CC(NCc2ncc[nH]2)CN1CCc1cccc(Cl)c1 (stereo not given)

>  <cytotoxicity at 10 µM / %>
-0.745

$$$$
>  <molecule>
Cc1ccsc1C(=O)N1CCCn2c(nc(CN(C)C)cc2=O)C1

>  <cytotoxicity at 10 µM / %>
-0.385

$$$$
>  <molecule>
CN(C)C(=O)N1C[C@H](Oc2ccccn2)[C@H]2OCCC[C@H]21

>  <cytotoxicity at 10 µM / %>
6.07

$$$$
>  <molecule>
Cn1cc(-c2nnn3c2COC(CNC(=O)c2cccs2)C3)cn1 (stereo not given)

>  <cytotoxicity at 10 µM / %>
3.31

$$$$
>  <molecule>
O=C1NCCN2CCN(Cc3ccc(Cl)c(Cl)c3)CC12 (stereo not given)

>  <cytotoxicity at 10 µM / %>
-4.92

$$$$
>  <molecule>
O=C(NC[C@H]1C[C@@H]2CCN1C[C@@H]2CN1CCCCC1)Nc1ccccc1

>  <cytotoxicity at 10 µM / %>
10

$$$$
>  <molecule>
Cc1cccc(C(=O)N2CCCn3cnc(CN4CCCC4=O)c3C2)n1

>  <cytotoxicity at 10 µM / %>
15.7

$$$$
>  <molecule>
Cc1noc(C)c1CN1C[C@H](OCC2CC2)[C@H]2COC[C@H]21

>  <cytotoxicity at 10 µM / %>
-5.78

$$$$
>  <molecule>
c1ccc2ncc(CC3CCNC3)cc2c1 (stereo not given)

>  <cytotoxicity at 10 µM / %>
-1.67

$$$$
>  <molecule>
CCN(CC)S(=O)(=O)c1ccc2c(c1)N(Cc1cccnc1)C(=O)CS2

>  <cytotoxicity at 10 µM / %>
1.82

$$$$
>  <molecule>
COc1cccc(C(=O)N(C)Cc2ncc(C)c(OC)c2C)c1OC

>  <cytotoxicity at 10 µM / %>
-7.02

$$$$
>  <molecule>
O=C(CCOCc1ccccc1)N1CCCC1c1noc(C2CC2)n1 (stereo not given)

>  <cytotoxicity at 10 µM / %>
-4.74

$$$$
>  <molecule>
CNC(=O)[C@@H]1C[C@H]2CN(C(=O)c3ccco3)C[C@H]2N1C

>  <cytotoxicity at 10 µM / %>
-2.85

$$$$
>  <molecule>
NC(=O)CN(Cc1ncc(-c2ccc(Cl)cc2)o1)C1CCCC1

>  <cytotoxicity at 10 µM / %>
-1.99

$$$$
>  <molecule>
Cc1ccoc1C(=O)N1CCO[C@H]2[C@H](OCc3ccncc3)CC[C@@H]21

>  <cytotoxicity at 10 µM / %>
9.06

$$$$
>  <molecule>
CCn1cc2[nH]c(OC)c(CNC(=O)C3CCCN(C)C3)cc-2c1=O (stereo not given)

>  <cytotoxicity at 10 µM / %>
11.3

$$$$
>  <molecule>
CCC(=O)N1CCc2nc(N3CCOCC3)nc(N(C)C)c2CC1

>  <cytotoxicity at 10 µM / %>
28.9

$$$$
>  <molecule>
CC(C)N(C)S(=O)(=O)c1ccc2c(c1)CCN(C(=O)c1cscn1)C2

>  <cytotoxicity at 10 µM / %>
8.48

$$$$
>  <molecule>
Cc1nc(CN2C[C@@H]3CN(C(=O)C4(C#N)CC4)C[C@@H]3C2=O)cs1

>  <cytotoxicity at 10 µM / %>
-70.7

$$$$
>  <molecule>
Cc1ccc(S(=O)(=O)NC[C@H]2OC[C@@H](NCc3ccncc3)[C@@H]2O)cc1

>  <cytotoxicity at 10 µM / %>
2.6

$$$$
>  <molecule>
CC(NC(=O)CCn1cccn1)c1ccc2c(c1)OCCO2 (stereo not given)

>  <cytotoxicity at 10 µM / %>
-7.79

$$$$
>  <molecule>
Cc1c(NC(=O)c2cnc[nH]2)cccc1C(=O)NC(C)(C)C

>  <cytotoxicity at 10 µM / %>
-6.46

$$$$
>  <molecule>
CNC(=O)c1ccc2c(c1)C1(CCN(CC3CC3)CC1)C(=O)N2

>  <cytotoxicity at 10 µM / %>
-0.843

$$$$
>  <molecule>
CC(=O)c1ccccc1NC(=O)CCN1CCSCC1

>  <cytotoxicity at 10 µM / %>
-7.88

$$$$
>  <molecule>
Cn1cc(-c2nnn3c2COC(CNCc2ccccn2)C3)cn1 (stereo not given)

>  <cytotoxicity at 10 µM / %>
0.298

$$$$
>  <molecule>
CS(=O)(=O)N1CCC(c2nnc(CN3CCCC3)n2C2CC2)CC1

>  <cytotoxicity at 10 µM / %>
-6.6

$$$$
>  <molecule>
COc1ccc(NC(=O)CCn2nc(-c3cccs3)oc2=O)cc1OC

>  <cytotoxicity at 10 µM / %>
-9.37

$$$$
>  <molecule>
COc1ccc(C[C@H]2CN(C(=O)CN(C)C)CC[C@H]2OC)cc1

>  <cytotoxicity at 10 µM / %>
3.96

$$$$
>  <molecule>
Cc1nn(C)c(N(C)C)c1CNCc1ccccc1Cn1cccn1

>  <cytotoxicity at 10 µM / %>
-8.06

$$$$
>  <molecule>
CCc1ncnc2c1CCN(Cc1ccc3c(c1)OCO3)CC2

>  <cytotoxicity at 10 µM / %>
-139

$$$$
>  <molecule>
FC(F)(F)Sc1ccc(NCc2nnc(C3CC3)o2)cc1

>  <cytotoxicity at 10 µM / %>
5.69

$$$$
>  <molecule>
O=C(CS(=O)(=O)Cc1nnnn1C1CC1)NCCc1ccccc1

>  <cytotoxicity at 10 µM / %>
2.92

$$$$
